The reported numbers originate from patent US20180037654A1.

# SYSTEM_NAME: human CTLA-4 (Y166G and Y183G) expressed on CHO-K1.hCTLA-4 cells (human, UniProt P16410 36-223)
# Sequence (P16410 36-223 Y201G/Y218G limits assumed): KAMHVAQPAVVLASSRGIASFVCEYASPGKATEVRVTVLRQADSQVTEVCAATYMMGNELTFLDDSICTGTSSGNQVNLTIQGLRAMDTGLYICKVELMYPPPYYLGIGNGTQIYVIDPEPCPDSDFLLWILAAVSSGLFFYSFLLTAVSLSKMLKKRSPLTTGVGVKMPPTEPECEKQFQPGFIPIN
# EXPERIMENT_DESCRIPTION: CELISA on CHO-K1.hCTLA-4 cells
pEC50: −log10 of the molar value.
Below, each entry is listed alongside its reported pEC50.
ASSAY_METRIC: pEC50

>  <BINDER>
hCTLA4.27H1L2 (antibody, human IgG4 S228P, kappa, V domains shown, Humanized, human IgG4 (S228P) kappa; H1 read as hCTLA4.27VH1, L2 as hCTLA4.27VL2) VH: EVQLLQSGAVLARPGTSVKISCKASGYSFTTYWMNWVKQRPGQGLEWIGMIHPSDSETSLNQAFKDKAKLTAATSASIAYLEFSSLTNEDSAVYYCARMGRRNPYYFDYWGQGTLVTVSS VL: DIQMTQSPSSLSASVGDRVTITCRPSENLYTNLAWYQQKPGKAPKLLIYGATNLADGVPSRFSGSGSGTEFSLSISSLQPEDFATYYCQHLWGTPFTFGGGTKVEIKR

>  <READING>
10.40

$$$$
>  <BINDER>
hCTLA4.27H3L2 (antibody, human IgG4 S228P, kappa, V domains shown, Humanized, human IgG4 (S228P) kappa; H3 read as hCTLA4.27VH3, L2 as hCTLA4.27VL2) VH: EVQLVQSGAVVAKPGSSVKVSCKASGYSFTTYWMNWVRQAPGQGLEWMGMIHPSDSETSLNQAFKDRVTITADKSTSTAYMELSSLTSEDTAVYYCARMGRRNPYYFDYWGQGTTVTVSS VL: DIQMTQSPSSLSASVGDRVTITCRPSENLYTNLAWYQQKPGKAPKLLIYGATNLADGVPSRFSGSGSGTEFSLSISSLQPEDFATYYCQHLWGTPFTFGGGTKVEIKR

>  <READING>
10.19

$$$$
